experimental.details: Dissociation constant, pKa of the compound
Assay type: physicochemical
parameter.measured: pKa

• c1cn2ccc3cc4c(nc3c2n1)CCCC4 = 4.59
• Cc1ccc2ccn3ccnc3c2n1 = 4.23
• Cc1cc2ccn3ccnc3c2nc1C = 4.63
• c1ccc(-c2ccc3ccn4ccnc4c3n2)cc1 = 1.96
• c1ccc2cc3nc4c(ccn5ccnc45)cc3cc2c1 = 2.43
• CCOC(=O)C1CCc2nc3c(ccn4ccnc34)cc2C1 (centres undefined) = 4.08
• c1ccc2c(c1)CCc1nc3c(ccn4ccnc34)cc1-2 = 3.53
• O=C1CCCc2nc3c(ccn4ccnc34)cc21 = 2
• c1ccc2c(c1)CCc1cc3ccn4ccnc4c3nc1-2 = 2.43

The reported measurements were obtained from ChEMBL document CHEMBL2021761.
